# Test system: L1210
# Test protocol: The compound was evaluated in vitro for its antiproliferative activity against the murine L1210 leukemia cell
# Assay type: functional, cell-based
# Details: Mus musculus
pIC50: −log10 of the molar value.
Observation type: pIC50

See these solved cases before continuing.
{"Molecule": "O=C1C(NCCc2ccc(O)cc2)=CC2=NCCc3c[nH]c1c32", "Value": 5.68}
{"Molecule": "NC1=CC2=NCCc3c[nH]c(c32)C1=O [MAKALUVAMINE I]", "Value": 6.60}
{"Molecule": "O=C1C(NCCN2CCCC2)=CC2=NCCc3c[nH]c1c32", "Value": 6.42}

(1) CN(C)CCNC1=CC2=NCCc3c[nH]c(c32)C1=O
(2) O=C1C(NCCc2c[nH]c3ccccc23)=CC2=NCCc3c[nH]c1c32
Given 1 and given 2 , which shows the smaller recorded pIC50? API: response body contains the label of the selected item.
2
